- Test system: 941728-121-R-J1-PDC complex spheroid viability
- procedureDetails: Anticancer human tumor 941728-121-R-J1-PDC patient-derived lung adenocarcinoma cell line growth inhibition [RAS]
- conditionLabel: second compound 1 µM; first compound 1 µM; stronger effect = lower value
Form field: viability, T/C (one value per entry).

compound | viability, T/C [%]
CCN1CCN(Cc2ccc(Nc3ncc(F)c(-c4cc(F)c5nc(C)n(C(C)C)c5c4)n3)nc2)CC1 + C=CC(=O)N1CCN(c2nc(OCC3CCCN3C)nc3c(F)c(-c4nc(N)cc(C)c4C(F)(F)F)c(Cl)cc23)C(C)C1 | 13.2
CC1(O)CCCC1n1c(=O)c(C(F)F)cc2cnc(NC3CCN(S(C)(=O)=O)CC3)nc21 (stereo not given) + C=CC(=O)N1CCN(c2nc(OCC3CCCN3C)nc3c(F)c(-c4nc(N)cc(C)c4C(F)(F)F)c(Cl)cc23)C(C)C1 | 21.9
Nc1ccn(C2OC(CO)C(O)C2(F)F)c(=O)n1 (stereo not given) + C=CC(=O)N1CCN(c2nc(OCC3CCCN3C)nc3c(F)c(-c4nc(N)cc(C)c4C(F)(F)F)c(Cl)cc23)C(C)C1 | 12.6
CC(Nc1ccc2c(c1)OCCn1cc(N3C(=O)OCC3C(F)F)nc1-2)C(N)=O (stereo not given) + C#Cc1c(F)ccc2cc(O)cc(-c3ncc4c(N5CC6CCC(C5)N6)nc(OCC56CCCN5CC(F)C6)nc4c3F)c12 | 27.8
O=C(c1ccc(F)c(F)c1Nc1ccc(I)cc1F)N1CC(O)([C@@H]2CCCCN2)C1 + C=CC(=O)N1CCN(c2nc(OCC3CCCN3C)nc3c(F)c(-c4nc(N)cc(C)c4C(F)(F)F)c(Cl)cc23)C(C)C1 | 11.1

---

- Tested on: 941728-121-R-J1-PDC complex spheroid viability
- procedureDetails: Anticancer human tumor 941728-121-R-J1-PDC cell line growth inhibition [RAS]; active = viability on the fitted dose curve at most 10% of control; inactive = the rest;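 note: spheroids exposed to compounds for 7 days before readout; 100% = DMSO vehicle control viability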
- conditionLabel: second compound 0.0949 µM; first compound 0.316 µM
Classes used: 1 = active, -1 = inactive

compound | assignedLabel
C[C@@H](NC(=O)c1ncnc(N)c1Cl)c1ncc(C(=O)Nc2cc(C(F)(F)F)c(Cl)cn2)s1 + CCn1c(-c2cc(N3CCN(C)CC3)cnc2C(C)OC)c2c3cc(ccc31)-c1csc(n1)CC(NC(=O)C1CC1C)C(=O)N1CCCC(N1)C(=O)OCC(C)(C)C2 | -1
C=CC(=O)Nc1cc(Nc2nccc(-c3cn(C)c4ccccc34)n2)c(OC)cc1N(C)CCN(C)C + CCn1c(-c2cc(N3CCN(C)CC3)cnc2C(C)OC)c2c3cc(ccc31)-c1csc(n1)CC(NC(=O)C1CC1C)C(=O)N1CCCC(N1)C(=O)OCC(C)(C)C2 | -1
Nc1ccn(C2OC(CO)C(O)C2(F)F)c(=O)n1 (stereo not given) + CCn1c(-c2cc(N3CCN(C)CC3)cnc2C(C)OC)c2c3cc(ccc31)-c1csc(n1)CC(NC(=O)C1CC1C)C(=O)N1CCCC(N1)C(=O)OCC(C)(C)C2 | -1
CCN1CCN(Cc2ccc(Nc3ncc(F)c(-c4cc(F)c5nc(C)n(C(C)C)c5c4)n3)nc2)CC1 + CCn1c(-c2cccnc2C(C)OC)c2c3cc(ccc31)N1CCOC(CC(NC(=O)C(C(C)C)N(C)C(=O)C3(F)CCN(C(=O)C#CC(C)(C)N(C)C)CC3)C(=O)N3CCCC(N3)C(=O)OCC(C)(C)C2)C1 | -1
CC(=O)OC12COC1CC(O)C1(C)C(=O)C(O)C3=C(C)C(OC(=O)C(O)C(NC(=O)OC(C)(C)C)c4ccccc4)CC(O)(C(OC(=O)c4ccccc4)C21)C3(C)C (stereo not given) + CCn1c(-c2cc(N3CCN(C)CC3)cnc2C(C)OC)c2c3cc(ccc31)-c1csc(n1)CC(NC(=O)C1CC1C)C(=O)N1CCCC(N1)C(=O)OCC(C)(C)C2 | 1
C=CC(=O)N1CCN(c2nc(OCC3CCCN3C)nc3c(F)c(-c4nc(N)cc(C)c4C(F)(F)F)c(Cl)cc23)C(C)C1 (stereo not given) + CCn1c(-c2cccnc2C(C)OC)c2c3cc(ccc31)N1CCOC(CC(NC(=O)C(C(C)C)N(C)C(=O)C3(F)CCN(C(=O)C#CC(C)(C)N(C)C)CC3)C(=O)N3CCCC(N3)C(=O)OCC(C)(C)C2)C1 | -1
C=CC(=O)Nc1cc(Nc2nccc(-c3cn(C)c4ccccc34)n2)c(OC)cc1N(C)CCN(C)C + CCn1c(-c2cccnc2C(C)OC)c2c3cc(ccc31)N1CCOC(CC(NC(=O)C(C(C)C)N(C)C(=O)C3(F)CCN(C(=O)C#CC(C)(C)N(C)C)CC3)C(=O)N3CCCC(N3)C(=O)OCC(C)(C)C2)C1 | -1
NC1c2ccccc2OC12CCN(c1cnc3c(N4CCCc5ncccc54)n[nH]c3n1)CC2 (stereo not given) + CCn1c(-c2cccnc2C(C)OC)c2c3cc(ccc31)N1CCOC(CC(NC(=O)C(C(C)C)N(C)C(=O)C3(F)CCN(C(=O)C#CC(C)(C)N(C)C)CC3)C(=O)N3CCCC(N3)C(=O)OCC(C)(C)C2)C1 | -1
CC(C)NCC(C(=O)N1CCN(c2ncnc3c2C(C)CC3O)CC1)c1ccc(Cl)cc1 (stereo not given) + CCn1c(-c2cccnc2C(C)OC)c2c3cc(ccc31)N1CCOC(CC(NC(=O)C(C(C)C)N(C)C(=O)C3(F)CCN(C(=O)C#CC(C)(C)N(C)C)CC3)C(=O)N3CCCC(N3)C(=O)OCC(C)(C)C2)C1 | -1
CC1(O)CCCC1n1c(=O)c(C(F)F)cc2cnc(NC3CCN(S(C)(=O)=O)CC3)nc21 (stereo not given) + CCn1c(-c2cc(N3CCN(C)CC3)cnc2C(C)OC)c2c3cc(ccc31)-c1csc(n1)CC(NC(=O)C1CC1C)C(=O)N1CCCC(N1)C(=O)OCC(C)(C)C2 | -1
Cc1nc(N2CCC3(CC2)COC(C)C3N)c(CO)nc1Sc1ccnc(N)c1Cl (stereo not given) + CCn1c(-c2cc(N3CCN(C)CC3)cnc2C(C)OC)c2c3cc(ccc31)-c1csc(n1)CC(NC(=O)C1CC1C)C(=O)N1CCCC(N1)C(=O)OCC(C)(C)C2 | -1
CCC(CC)c1cc(NC2CCC(N)C2)n2nccc2n1 (stereo not given) + CCn1c(-c2cc(N3CCN(C)CC3)cnc2C(C)OC)c2c3cc(ccc31)-c1csc(n1)CC(NC(=O)C1CC1C)C(=O)N1CCCC(N1)C(=O)OCC(C)(C)C2 | -1
CC(C)NCC(C(=O)N1CCN(c2ncnc3c2C(C)CC3O)CC1)c1ccc(Cl)cc1 (stereo not given) + CCn1c(-c2cc(N3CCN(C)CC3)cnc2C(C)OC)c2c3cc(ccc31)-c1csc(n1)CC(NC(=O)C1CC1C)C(=O)N1CCCC(N1)C(=O)OCC(C)(C)C2 | -1
NC1c2ccccc2OC12CCN(c1cnc3c(N4CCCc5ncccc54)n[nH]c3n1)CC2 (stereo not given) + CCn1c(-c2cc(N3CCN(C)CC3)cnc2C(C)OC)c2c3cc(ccc31)-c1csc(n1)CC(NC(=O)C1CC1C)C(=O)N1CCCC(N1)C(=O)OCC(C)(C)C2 | -1
C=CC(=O)N1CCN(c2nc(OCC3CCCN3C)nc3c(F)c(-c4nc(N)cc(C)c4C(F)(F)F)c(Cl)cc23)C(C)C1 (stereo not given) + CCn1c(-c2cc(N3CCN(C)CC3)cnc2C(C)OC)c2c3cc(ccc31)-c1csc(n1)CC(NC(=O)C1CC1C)C(=O)N1CCCC(N1)C(=O)OCC(C)(C)C2 | -1

---

- System: 941728-121-R-J1-PDC complex spheroid viability
- procedureDetails: Anticancer human tumor 941728-121-R-J1-PDC cell line growth inhibition [RAS]; active = viability on the fitted dose curve at most 10% of control; inactive = the rest;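 note: spheroids exposed to compounds for 7 days before readout; 100% = DMSO vehicle control viability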
- conditionLabel: second compound 0.1 µM; first compound 0.1 µM
Labels: 1 (yes) (active), 0 (no) (inactive)

compound | studySystem | assignedLabel
NC1c2ccccc2OC12CCN(c1cnc3c(N4CCCc5ncccc54)n[nH]c3n1)CC2 (stereo not given) + C#Cc1c(F)ccc2cc(O)cc(-c3ncc4c(N5CC6CCC(C5)N6)nc(OCC56CCCN5CC(F)C6)nc4c3F)c12 | 941728-121-R-J1-PDC complex spheroid viability | 0 (no)
CC(C)NCC(C(=O)N1CCN(c2ncnc3c2C(C)CC3O)CC1)c1ccc(Cl)cc1 (stereo not given) + C=CC(=O)N1CCN(c2nc(OCC3CCCN3C)nc3c(F)c(-c4nc(N)cc(C)c4C(F)(F)F)c(Cl)cc23)C(C)C1 | 941728-121-R-J1-PDC complex spheroid viability | 0 (no)
O=C(c1ccc(F)c(F)c1Nc1ccc(I)cc1F)N1CC(O)([C@@H]2CCCCN2)C1 + C=CC(=O)N1CCN(c2nc(OCC3CCCN3C)nc3c(F)c(-c4nc(N)cc(C)c4C(F)(F)F)c(Cl)cc23)C(C)C1 | 941728-121-R-J1-PDC complex spheroid viability | 0 (no)
CC1(O)CCCC1n1c(=O)c(C(F)F)cc2cnc(NC3CCN(S(C)(=O)=O)CC3)nc21 (stereo not given) + C=CC(=O)N1CCN(c2nc(OCC3CCCN3C)nc3c(F)c(-c4nc(N)cc(C)c4C(F)(F)F)c(Cl)cc23)C(C)C1 | 941728-121-R-J1-PDC complex spheroid viability | 0 (no)
CC(Nc1ccc2c(c1)OCCn1cc(N3C(=O)OCC3C(F)F)nc1-2)C(N)=O (stereo not given) + C#Cc1c(F)ccc2cc(O)cc(-c3ncc4c(N5CC6CCC(C5)N6)nc(OCC56CCCN5CC(F)C6)nc4c3F)c12 | 941728-121-R-J1-PDC complex spheroid viability | 0 (no)
C[C@@H](NC(=O)c1ncnc(N)c1Cl)c1ncc(C(=O)Nc2cc(C(F)(F)F)c(Cl)cn2)s1 + C#Cc1c(F)ccc2cc(O)cc(-c3ncc4c(N5CC6CCC(C5)N6)nc(OCC56CCCN5CC(F)C6)nc4c3F)c12 | 941728-121-R-J1-PDC complex spheroid viability | 0 (no)
CCC(CC)c1cc(NC2CCC(N)C2)n2nccc2n1 (stereo not given) + C#Cc1c(F)ccc2cc(O)cc(-c3ncc4c(N5CC6CCC(C5)N6)nc(OCC56CCCN5CC(F)C6)nc4c3F)c12 | 941728-121-R-J1-PDC complex spheroid viability | 0 (no)
O=C(c1ccc(F)c(F)c1Nc1ccc(I)cc1F)N1CC(O)([C@@H]2CCCCN2)C1 + C#Cc1c(F)ccc2cc(O)cc(-c3ncc4c(N5CC6CCC(C5)N6)nc(OCC56CCCN5CC(F)C6)nc4c3F)c12 | 941728-121-R-J1-PDC complex spheroid viability | 0 (no)
CC(Nc1ccc2c(c1)OCCn1cc(N3C(=O)OCC3C(F)F)nc1-2)C(N)=O (stereo not given) + C=CC(=O)N1CCN(c2nc(OCC3CCCN3C)nc3c(F)c(-c4nc(N)cc(C)c4C(F)(F)F)c(Cl)cc23)C(C)C1 | 941728-121-R-J1-PDC complex spheroid viability | 0 (no)
CC(C)n1nc(-c2ccc3oc(N)nc3c2)c2c(N)ncnc21 + C=CC(=O)N1CCN(c2nc(OCC3CCCN3C)nc3c(F)c(-c4nc(N)cc(C)c4C(F)(F)F)c(Cl)cc23)C(C)C1 | 941728-121-R-J1-PDC complex spheroid viability | 1 (yes)
